- TARGET: Fes (UniProt P07332)
- Sequence (P07332 whole entry, looked up): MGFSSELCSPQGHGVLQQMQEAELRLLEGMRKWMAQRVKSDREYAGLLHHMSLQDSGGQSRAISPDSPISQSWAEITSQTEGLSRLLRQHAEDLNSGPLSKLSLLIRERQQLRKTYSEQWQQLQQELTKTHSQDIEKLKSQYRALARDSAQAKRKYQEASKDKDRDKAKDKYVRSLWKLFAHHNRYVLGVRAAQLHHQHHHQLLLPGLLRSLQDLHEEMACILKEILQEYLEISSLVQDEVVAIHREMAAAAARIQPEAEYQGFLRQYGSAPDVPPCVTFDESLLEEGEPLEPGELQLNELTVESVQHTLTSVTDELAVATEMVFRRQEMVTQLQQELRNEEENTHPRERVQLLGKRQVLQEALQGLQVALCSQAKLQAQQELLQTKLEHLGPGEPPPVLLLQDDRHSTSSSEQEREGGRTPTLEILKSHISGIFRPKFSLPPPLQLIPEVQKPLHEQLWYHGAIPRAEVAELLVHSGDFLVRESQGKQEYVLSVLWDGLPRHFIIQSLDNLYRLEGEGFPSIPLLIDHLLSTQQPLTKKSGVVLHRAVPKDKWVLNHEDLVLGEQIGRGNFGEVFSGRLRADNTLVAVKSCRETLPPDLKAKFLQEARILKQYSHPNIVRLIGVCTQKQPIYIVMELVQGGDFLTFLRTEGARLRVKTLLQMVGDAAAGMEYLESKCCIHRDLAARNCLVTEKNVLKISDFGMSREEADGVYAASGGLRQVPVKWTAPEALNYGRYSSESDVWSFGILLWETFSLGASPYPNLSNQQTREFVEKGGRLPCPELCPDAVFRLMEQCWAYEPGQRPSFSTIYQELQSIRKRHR
- ASSAY_PROTOCOL: phosphorylation enrichment, bacterial display (enrichment ratio); higher = better substrate or ligand; peptides without Tyr show the background;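 further: 11-residue human phosphosite peptides and single-mutation variants displayed on the E. coli surface, counted by deep sequencing, each peptide's frequency after selection divided by its frequency in the unselected input library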;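 further: frequency after pTyr selection over input frequency; kinase dosed for 20-30% of maximal phosphorylation in three min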
Answer Criterion not met if phosphorylation enrichment is under 1, and Criterion met if it is 1 or more.

- KFLENYLNCLL [PLD2_Y169_R172C_YF]: Criterion met

Would you say GSERRYSREGG [PTPRN2_Y139] shows phosphorylation enrichment at minimum 1?
Criterion not met

Now the sequence RDHYGYRQSVT [CD55_Y245]
Criterion not met

Now the sequence WASSSYRETPS [SORBS1_Y79_R74W]
Criterion not met

Now the sequence PSDPSYEDTRE [BMPR1A_Y467_M470T]
Criterion met

Now the sequence LVIIKYLPEWT [PSEN1_Y240_F237I]
Criterion met

Now the sequence KNNSIYVVANI [VNN1_Y134]
Criterion met

Now the sequence LGPSDYFGEIV [PRKAR1A_Y323_A328V]
Criterion not met

Now the sequence QMRLKYSQSDL [SMC1A_Y714]
Criterion not met

Now the sequence RKNAKYLLKGE [CDH5_Y82]
Criterion met

Now the sequence ELELLYLDRNS [NYX_Y284]
Criterion not met

Now the sequence ARGTRYRFVSQ [UCN3_Y95_YF]
Criterion not met

Now the sequence MKGDFYRSLAE [YWHAG_Y131_Y133S_YF]
Criterion not met

Now the sequence VVGMLYVGGLP [LAMA2_Y2886]
Criterion met

Now the sequence SGPRRYTIATL [TTR_Y125_A129T]
Criterion not met

Now the sequence AKKMKYFEGVS [PRKDC_Y682_I680M]
Criterion not met

Now the sequence AHAGKYGAEAL [HBA1_Y25_E24K]
Criterion not met
